# Test Protocol: Solubility to water calculated from UV-visible absorbance
# Study Conditions: saturated solution in water, diluted with standard buffer pH 6.86 (25° C.); absorbance at maximum absorption wavelength 300-550 nm, calibration curve
Observed Property: Solubility (%)

Compound: O=C1c2cccc(S(=O)(=O)[O-])c2C(=O)c2cccc(S(=O)(=O)[O-])c21.[Na+].[Na+] [reference compound]
Solubility (%): 2.7%
--
Compound: O=C1c2cccc(S(=O)(=O)[O-])c2C(=O)c2c1cccc2S(=O)(=O)[O-].[K+].[K+] [reference compound]
Solubility (%): 0.2%
--
Compound: O=C([O-])COc1cc2c(c(OCC(=O)[O-])c1OCC(=O)[O-])C(=O)c1cc(OCC(=O)[O-])c(OCC(=O)[O-])c(OCC(=O)[O-])c1C2=O.[K+].[K+].[K+].[K+].[K+].[K+]
Solubility (%): 17.7%
--
Compound: O=C1c2ccccc2C(=O)c2c1cc(OCCCS(=O)(=O)[O-])c(OCCCS(=O)(=O)[O-])c2OCCCS(=O)(=O)[O-].[Na+].[Na+].[Na+]
Solubility (%): 35.3%
--
Compound: O=C1C(SCCCS(=O)(=O)[O-])=C(SCCCS(=O)(=O)[O-])C(=O)c2ccccc21.[K+].[K+]
Solubility (%): 36.6%

Now examine the next entry.
[Q] Recorded Solubility (%) of O=C1c2cc(OCCOCCOCCO)c(O)c(OCCOCCOCCO)c2C(=O)c2cc(OCCOCCOCCO)c(O)c(OCCOCCOCCO)c21 , please.
[A] 41.8%
